# system.name: Biotin-ncov RBD (KACTUS, COV-VM4BDB) (SARS-CoV-2, UniProt P0DTC2 319-537)
# test.method.notes: ELISA blocking assay: antibody titrated from 900 nM, blocks biotin-RBD (200 ng/mL) binding to coated ACE2-Fc
measure.name: IC50

Look up IC50 of P23-29 (antibody, V domains shown, also called candidate antibody molecule P23-29) VH: QVQLQESGPGLVKPSETLSLTCTVSGDSISSSTYYWGWIRQPPGKGLEWIGSMYYGRSTYYNPSLKSRVTVSVDTSKNQLSLKVSSVTAADTAVYYCARHLGGVDYWGQGTLVTVSS VL: DIQMTQSPSSLSASVGDRVTITCRASQGISNSLAWYQQEPGKAPKLLLYAASTLESGVPSRFSGSGSGADSTLTISSLQPEDFATYYCQQYYSASALTFGGGTKVEIK and report it.
1.2 nM
